- target: β2-adrenergic receptor (Mus musculus, UniProt P18762)
- Sequence (P18762 whole entry): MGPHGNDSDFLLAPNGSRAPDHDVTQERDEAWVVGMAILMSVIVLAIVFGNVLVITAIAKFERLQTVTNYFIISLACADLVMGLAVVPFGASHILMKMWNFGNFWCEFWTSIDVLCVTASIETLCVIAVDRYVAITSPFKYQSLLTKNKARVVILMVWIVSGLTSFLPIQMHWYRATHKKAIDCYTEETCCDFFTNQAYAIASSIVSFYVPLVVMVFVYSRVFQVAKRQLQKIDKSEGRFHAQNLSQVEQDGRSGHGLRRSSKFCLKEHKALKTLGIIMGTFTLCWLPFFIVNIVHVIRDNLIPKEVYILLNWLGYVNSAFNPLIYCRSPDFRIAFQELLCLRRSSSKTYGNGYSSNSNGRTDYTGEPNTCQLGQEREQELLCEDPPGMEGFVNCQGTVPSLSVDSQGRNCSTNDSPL
- Assay type: in vivo, mice
- reported conditions: 2 days of administration

[
  {
    "molecule": "CC(C)(C)NCC(O)c1ccc(O)c(CO)c1 (stereo not shown) [Salbutamol, salbutamol]",
    "Increased β2AR density": "no"
  },
  {
    "molecule": "CC(C)(C)NCC(O)COc1cccc2c1CC(O)C(O)C2 (stereo not shown) [Nadolol, nadolol]",
    "Increased β2AR density": "yes"
  },
  {
    "molecule": "COc1ccccc1OCCNCC(O)COc1cccc2[nH]c3ccccc3c12 (stereo not shown) [Carvedilol, carvedilol]",
    "Increased β2AR density": "no"
  },
  {
    "molecule": "C=CCc1ccccc1OCC(O)CNC(C)C (stereo not shown) [Alprenolol, alprenolol]",
    "Increased β2AR density": "no"
  }
]
